system: IRF3 translocation induced by dsDNA (ISD); assay: IRF3 translocation inhibition, confocal/immunofluorescence after ISD transfection; format: cell-based; conditions: Homo sapiens, % means blockage of IRF3 translocation induced by dsDNA (ISD)
QUANTITY: inhibition at 25 µM

Example entries and their recorded answers appear below.
MOLECULE	TESTED_TARGET	OBSERVED_MEASUREMENT
Cc1cc(N2CCN(Cc3csc(-c4ccc(Cl)cc4)n3)CC2)nc(N(C)C)n1 [Compound W14]	IRF3 translocation induced by dsDNA (ISD)	~70%
Cc1cc(N2CCN(Cc3ncc(-c4ccccc4)s3)CC2)nc(N(C)C)n1 [Compound W20]	IRF3 translocation induced by dsDNA (ISD)	40 to 50%

Looking up Cc1cc([N+](=O)[O-])ccc1S(=O)(=O)Nc1nc2cc(C(F)(F)F)ccc2[nH]1 [Compound W1] , I found its inhibition at 25 µM recorded as 40 to 50%

Looking up CCc1ccc(-c2nc(CN3CCN(c4cc(C)nc(N(C)C)n4)CC3)cs2)cc1 [Compound W15] , I found its inhibition at 25 µM recorded as 90 to 100%

---

test system: pIRF3, pSTING; experiment: Western blot of pIRF3, pSTING, pTBK1 after ISD transfection in hTERT cells; type: cell-based, human; conditions: Homo sapiens
QUANTITY: inhibition at 10 µM

SMILES_ENTRY	TESTED_TARGET	inhibition at 10 µM
COc1ccc(-c2nc(CN3CCN(c4cc(C)nc(N(C)C)n4)CC3)cs2)cc1OC	pIRF3, pSTING	40 to 50%
Cc1cc(N2CCN(Cc3cnc(-c4ccccc4)s3)CC2)nc(N(C)C)n1	pIRF3, pSTING	< 10%
Cc1cc([N+](=O)[O-])ccc1S(=O)(=O)Nc1nc2cc(C(F)(F)F)ccc2[nH]1	pIRF3, pSTING	< 10%
COc1ccc(-c2nc(CN3CCN(c4nc(C)cc(C(C)C)n4)CC3)cs2)cc1OC	pIRF3, pSTING	< 10%
CCc1ccc(-c2nc(CN3CCN(c4cc(C)nc(N(C)C)n4)CC3)cs2)cc1	pIRF3, pSTING	90 to 100%

Here is the next item to consider.
Looking up Cc1cc(N2CCN(Cc3ncc(-c4ccccc4)s3)CC2)nc(N(C)C)n1 , I found its inhibition at 10 µM recorded as < 10%

---

system: IFNβ expression (type I IFNβ promoter driving luciferase); assay: IFNβ promoter luciferase assay in hTERT-pIFNβ-Glu cells transfected with ISD; format: cell-based, human; details: Homo sapiens
QUANTITY: inhibition at 5 µM (%)
Give just the number in %; leave the unit off.

Example entries and their recorded answers appear below.
SMILES_ENTRY	inhibition at 5 µM / %
CNc1nc(C)cc(N2CCN(Cc3csc(-c4ccc(OC)c(OC)c4)n3)CC2)n1	-33
COc1cc(C(F)(F)F)ccc1-c1nc(CN2CCN(c3cc(C)nc(N(C)C)n3)CC2)cs1	60

Looking up CCc1cc(N2CCN(Cc3csc(-c4ccc(OC)c(OC)c4)n3)CC2)nc(N(C)C)n1 , I found its inhibition at 5 µM recorded as -126

Looking up Cc1cc(N2CCN(Cc3csc(-c4ccc(C(C)(F)F)cc4)n3)CC2)nc(N(C)C)n1 , I found its inhibition at 5 µM recorded as 70

Looking up COc1ccc(-c2nc(CN3CCN(c4cc(C)nc(N5CCCC5)n4)CC3)cs2)cc1OC , I found its inhibition at 5 µM recorded as -26

Looking up Cc1cc([N+](=O)[O-])ccc1S(=O)(=O)Nc1nc2cc(C(F)(F)F)ccc2[nH]1 , I found its inhibition at 5 µM recorded as 4

Looking up COc1ccc(-c2nc(CN3CCN(c4cc(C)nc(N(C)C)n4)CC3)cs2)cc1 , I found its inhibition at 5 µM recorded as -11

Looking up Cc1cc(N2CCN(Cc3cnc(-c4ccccc4)o3)CC2)nc(N(C)C)n1 , I found its inhibition at 5 µM recorded as 2

---

test system: IFNβ expression (type I IFNβ promoter driving luciferase); experiment: IFNβ promoter luciferase assay in hTERT-pIFNβ-Glu cells transfected with ISD; type: cell-based, human; details: Homo sapiens
QUANTITY: inhibition at 5 µM (%)
Give just the number in %; leave the unit off.

Example entries and their recorded answers appear below.
COMPOUND	inhibition at 5 µM / %
COc1ccc(-c2nc(CN3CCN(c4nc(C)nc(N(C)C)n4)CC3)cs2)cc1OC [Compound W4]	4
CCN(CC)c1nc(C)cc(N2CCN(Cc3csc(-c4ccc(OC)c(OC)c4)n3)CC2)n1 [Compound W22]	28
CCc1ccc(-c2nc(CN3CCN(c4cc(C)nc(N(C)C)n4)CC3)cs2)cc1 [Compound W15]	69

Looking up Cc1cc(N2CCN(Cc3csc(-c4ccccc4)n3)CC2)nc(N(C)C)n1 [Compound W6] , I found its inhibition at 5 µM recorded as -34

Looking up COc1cccc(-c2nc(CN3CCN(c4cc(C)nc(N(C)C)n4)CC3)cs2)c1 [Compound W8] , I found its inhibition at 5 µM recorded as -59

Looking up COc1ccc(-c2nc(CN3CCN(c4cc(C)nc(C(C)C)n4)CC3)cs2)cc1OC [Compound W2] , I found its inhibition at 5 µM recorded as -4

Looking up COc1ccc(-c2nc(CN3CCN(c4cc(C(C)C)nc(N(C)C)n4)CC3)cs2)cc1OC [Compound W26] , I found its inhibition at 5 µM recorded as -120

Looking up COc1ccc(-c2nc(CN3CCN(c4cc(C)nc(N(C)C)n4)CC3)cs2)cc1OC [Compound W3] , I found its inhibition at 5 µM recorded as -37

---

system: IFNβ expression (type I IFNβ promoter driving luciferase); assay: IFNβ promoter luciferase assay in hTERT-pIFNβ-Glu cells transfected with ISD; format: cell-based, human; conditions: Homo sapiens
QUANTITY: inhibition at 5 µM (%)
Give just the number in %; leave the unit off.

Example entries and their recorded answers appear below.
SMILES_ENTRY	QUANTITY	OBSERVED_MEASUREMENT
Cc1cc(N2CCN(Cc3csc(-c4ccc(C(F)(F)F)cc4)n3)CC2)nc(N(C)C)n1	inhibition at 5 µM	38
Cc1cc(N2CCN(Cc3noc(-c4ccccc4)n3)CC2)nc(N(C)C)n1	inhibition at 5 µM	26
Cc1cc(N2CCN(Cc3csc(-c4ccc5c(c4)OCC5)n3)CC2)nc(N(C)C)n1	inhibition at 5 µM	0
Cc1cc(N2CCN(Cc3csc(-c4ccc(Cl)cc4)n3)CC2)nc(N(C)C)n1	inhibition at 5 µM	42
Cc1cc(N2CCN(Cc3ncc(-c4ccccc4)s3)CC2)nc(N(C)C)n1	inhibition at 5 µM	79

Looking up Cc1cc(N2CCN(Cc3csc(-c4ccc(C(C)C)cc4)n3)CC2)nc(N(C)C)n1 , I found its inhibition at 5 µM recorded as 50

Looking up Cc1cc(N2CCN(Cc3coc(-c4ccccc4)n3)CC2)nc(N(C)C)n1 , I found its inhibition at 5 µM recorded as -82

Looking up Cc1cc(N2CCN(Cc3csc(-c4ccc(S(C)(=O)=O)cc4)n3)CC2)nc(N(C)C)n1 , I found its inhibition at 5 µM recorded as -40

Looking up Cc1cc(N2CCN(Cc3cnc(-c4ccccc4)s3)CC2)nc(N(C)C)n1 , I found its inhibition at 5 µM recorded as 76

Looking up Cc1cc(N2CCN(Cc3csc(-c4ccc(C(F)(F)Cl)cc4)n3)CC2)nc(N(C)C)n1 , I found its inhibition at 5 µM recorded as 50

Looking up COc1cc(N2CCN(Cc3csc(-c4ccc(OC)c(OC)c4)n3)CC2)nc(N(C)C)n1 , I found its inhibition at 5 µM recorded as -64

Looking up COc1ccc(-c2nc(CN3CCN(c4nc(C)cc(C(C)C)n4)CC3)cs2)cc1OC , I found its inhibition at 5 µM recorded as 18

---

Listing: inhibition at 10 µM of selected compounds
system: pIRF3, pSTING; assay: Western blot of pIRF3, pSTING, pTBK1 after ISD transfection in hTERT cells; format: cell-based, human; details: Homo sapiens

Example entries and their recorded answers appear below.
COMPOUND	QUANTITY	OBSERVED_MEASUREMENT
Cc1cc(N2CCN(Cc3csc(-c4ccc(Cl)cc4)n3)CC2)nc(N(C)C)n1 [Compound W14]	inhibition at 10 µM	90 to 100%
Cc1cc(N2CCN(Cc3csc(-c4ccc(C(F)(F)F)cc4)n3)CC2)nc(N(C)C)n1 [Compound W11]	inhibition at 10 µM	90 to 100%
COc1ccc(-c2nc(CN3CCN(c4nc(C)nc(N(C)C)n4)CC3)cs2)cc1OC [Compound W4]	inhibition at 10 µM	< 10%

Here is the next item to consider.
Looking up COc1ccc(-c2nc(CN3CCN(c4cc(C)nc(N(C)C)n4)CC3)cs2)c(OC)c1 [Compound W13] , I found its inhibition at 10 µM recorded as 90 to 100%
